Assay: in vitro
Details: monkey
As shown below, each of these compounds has a reported CC50 value.

Compound: CCCc1cc2c3c(c(=O)oc2cc1OC(=O)CNC(=O)OCc1ccccc1)CCC3
Property Label: CC50
Measured Value: 33.4 µM

Compound: CCCCC/C=C\C/C=C\CCCCCCCC(=O)O [MolPort-001-788-459, (9Z,12Z)-octadeca-9,12-dienoic acid]
Property Label: CC50
Measured Value: > 100 µM

Compound: O=C(NCCc1ccccc1)c1cc2c([nH]c3ccccc32)c(CCc2ccccc2)n1
Property Label: CC50
Measured Value: 42.2 µM

Compound: CCCCCOc1cccc(/C=C/C23N=C(O)CCN2c2ccccc2C3(C)C)c1 (centres unmarked)
Property Label: CC50
Measured Value: > 100 µM

Compound: CC(C)CCC(CCNCc1ccc(OC(C)C)cc1)C1CCOC(C)(C)C1 (centres unmarked)
Property Label: CC50
Measured Value: 14.5 µM

Data request: Request the reported CC50 associated with CCCCCCCc1ccc(C(=O)Oc2ccc(SC)cc2)cc1
Data returned: > 100 µM

Data request: Request: CCCCCC[C@@H](O)C/C=C\CCCCCCCC(=O)O [MolPort-003-939-239, (9Z,12R)-12-hydroxyoctadec-9-enoic acid]
Data returned: > 100 µM

Data request: What about this compound? CC/C=C\C/C=C\C/C=C\CCCCCCCC(=O)O
Data returned: > 100 µM

###

System: SARS-CoV-2 (βCoV/KOR/KCDC03/2020)
Experiment: in vitro
Conditions: monkey
Property Label: selectivity ratio
Answer as a number with no unit attached.

Consider the reported selectivity ratio for these molecules:
Smiles Notation: CC/C=C\C/C=C\C/C=C\CCCCCCCC(=O)O
Property Label: selectivity ratio
Measured Value: 1.71
--
Smiles Notation: O=C(C[C@@H]1CCNC[C@@H]1Cc1cc(COc2ccccc2)on1)NCc1ccc(F)cc1
Property Label: selectivity ratio
Measured Value: 1.43
--
Smiles Notation: O=C(OC[C@@H]1CCCN2CCCC[C@H]12)c1ccc(CSCc2ccccc2)o1
Property Label: selectivity ratio
Measured Value: 2.04

Data request: Item under review: CC/C=C\C/C=C\C/C=C\C/C=C\C/C=C\CCCC(=O)O . Reported selectivity ratio?
Data returned: 1.69

Data request: Now consider CCCCCCCOC(=O)c1ccc(OC(=O)c2cccnc2)cc1 .
Data returned: 2.02

###

# CC50 annotations
Assay: in vitro
Details: monkey

Examples from the recorded data:
Molecule: CCCCCCCC/C=C\CCCCCCCC(=O)O
Measured Value: > 100 µM

Molecule: CCCCCCCCC1OCC(OC(=O)c2ccc(OC)cc2)CO1 (centres unmarked)
Measured Value: > 100 µM

Molecule: O=C(NC[C@@H]1CCCN2CCCC[C@H]12)c1cccc(-c2cc3ccccc3oc2=O)c1
Measured Value: > 100 µM

Data request: Which measured CC50 value corresponds to CCCCCCCCCCC#CC#CCCCCCCCCC(=O)O ?
Data returned: > 100 µM

Data request: Same question for CCOC(=O)c1c(C(C)(C)C)oc2ccc(OC(=O)c3ccc(OC)cc3)cc12 please.
Data returned: > 100 µM

Data request: Please do the same for CC/C=C\C/C=C\C/C=C\C/C=C\C/C=C\CCCC(=O)O as well.
Data returned: 70.5 µM

Data request: Proceed to CC/C=C\C/C=C\C/C=C\C/C=C\C/C=C\C/C=C\CCC(=O)O
Data returned: 62.4 µM

Data request: Please do the same for CC/C=C/C/C=C/C/C=C/C/C=C/C/C=C/C/C=C\CCC(=O)O as well.
Data returned: 36.2 µM
